Tested on: E. coli TESEC Mtb Alr
Assay: growth (OD600 after 10 h); higher = more growth (less inhibition)
Conditions: arabinose 10000000 nM; compound 0.1 mM; raw OD600 reference: median of DMSO wells 0.146, cell-free background 0.041
Structures can show the parent of a compound that is named as a salt.
Param threshold (0.1) applies to growth; output yes when value >= threshold, no when value < threshold.

Example entries begin here.
| compound | group.label |
| --- | --- |
| CCOC(=O)c1ccc(OC(=O)CCCCCNC(=N)N)cc1 [Gabexate mesilate] | yes |
| CCN(CCCc1ccccc1)CCCc1ccccc1 [Alverine citrate salt] | yes |
| CC(=O)[C@H]1CC[C@H]2[C@@H]3C[C@H](C)C4=CC(=O)CC[C@]4(C)[C@H]3[C@@H](O)C[C@]12C | yes |
| Clc1ccc(CSC(Cn2ccnc2)c2ccc(Cl)cc2Cl)cc1 (stereo not drawn) [Sulconazole nitrate] | no |
| CC(C)C(=O)Nc1ccc([N+](=O)[O-])c(C(F)(F)F)c1 [Flutamide] | no |
| CN(C(=O)C(Cl)Cl)c1ccc(OC(=O)c2ccco2)cc1 [Diloxanide furoate] | yes |

Query: Assess whether reported growth for COc1ccc(-c2ccc(=N)n(CCCC(=O)O)n2)cc1 [Gabazine bromide] sits at 0.1 or higher.
Result: yes

Query: Has CCCC(C(=O)OCCN(CC)CC)(c1ccccc1)c1ccccc1 [Proadifen hydrochloride] a recorded growth greater than or equal to 0.1?
Result: no

Query: Check this compound for growth at or above 0.1: O=C(NCCNCC(O)COc1ccc(O)cc1)N1CCOCC1 (stereo not drawn) [Xamoterol hemifumarate]
Result: yes

Query: Confirm if growth reported for the compound Cc1ccccc1C(OCCN(C)C)c1ccccc1 (stereo not drawn) [Orphenadrine hydrochloride] is 0.1 or above.
Result: yes

Query: Item OC[C@H]1O[C@@H](Oc2ccc(O)cc2)[C@H](O)[C@@H](O)[C@@H]1O with growth of 0.1 or above?
Result: yes

Query: # check: growth of CNS(=O)(=O)Cc1ccc2[nH]cc(CCN(C)C)c2c1 [Sumatriptan succinate] is greater than or equal to 0.1
Result: yes

Query: Quick check: does COC(=O)Nc1nc2cc(C(=O)c3ccc(F)cc3)ccc2[nH]1 have growth greater than or equal to 0.1?
Result: yes

Query: Decide: growth of O=C(COc1ccc(Cl)cc1)N1CCN(Cc2ccc3c(c2)OCO3)CC1 [Fipexide hydrochloride] >= 0.1?
Result: yes

Query: Check if growth >= 0.1 (inclusive). Item: Oc1ncnc2[nH]ncc12
Result: yes

Query: Could you please find out whether CC1(C)O[C@@H]2C[C@H]3[C@@H]4C[C@H](F)C5=CC(=O)C=C[C@]5(C)[C@H]4[C@@H](O)C[C@]3(C)[C@]2(C(=O)CO)O1 [Flunisolide] has growth that meets 0.1 or exceeds it?
Result: yes

Query: API: above_or_equal(metric=growth, cutoff=0.1) for item CCCCC[C@H](O)/C=C/[C@H]1[C@H](O)CC(=O)[C@@H]1CCCCCCC(=O)O
Result: yes

Query: Quick check: does C=CCN1CCCC1CNC(=O)c1cc2nn[nH]c2cc1OC (stereo not drawn) [Alizapride HCl] have growth greater than or equal to 0.1?
Result: yes

###

System: E. coli TESEC Mtb DapB
Assay: growth (OD600 after 10 h); higher = more growth (less inhibition)
Conditions: arabinose induction (level): High; compound 0.1 mM; raw OD600 reference: median of DMSO wells […], cell-free background 0.041
Where a name gives a salt, the structure may show the parent alone.
assay.metric: growth
Numbers only.

| molecule | result.number |
| --- | --- |
| OC[C@H]1O[C@@H](Oc2ccc(O)cc2)[C@H](O)[C@@H](O)[C@@H]1O | 0.209 |
| O=C(O)c1ccccc1Nc1cccc(C(F)(F)F)c1 | 0.117 |
| NS(=O)(=O)c1cc(C2(O)NC(=O)c3ccccc32)ccc1Cl (configuration not stated) | 0.205 |
| CCCCN(CCCC)CCCOC(=O)c1ccc(N)cc1 | 0.182 |
| COCCOC(=O)C1=C(C)NC(C)=C(C(=O)OC(C)C)C1c1cccc([N+](=O)[O-])c1 (configuration not stated) | 0.169 |
| CC(CN(C)C)C(C)(O)Cc1ccc(Cl)cc1 (configuration not stated) [Clobutinol hydrochloride] | 0.187 |

Report growth for each item below.
1. COc1cc([C@@H]2c3cc4c(cc3[C@@H](O[C@@H]3O[C@@H]5CO[C@@H](C)O[C@H]5[C@H](O)[C@H]3O)[C@H]3COC(=O)[C@H]23)OCO4)cc(OC)c1O [Etoposide]
2. CN(C)CC/C=C1\c2ccccc2CSc2ccccc21 [Dosulepin hydrochloride]

Result:
0.113
0.168

Parameters: items (list). Returns: growth for each item.
1. CC(=O)c1ccc2c(c1)N(CCCN(C)C)c1ccccc1S2 [Acetopromazine maleate salt]
2. Clc1ccc(Nc2nnc(Cc3ccncc3)c3ccccc23)cc1
3. CC(C)(O/N=C(\C(=O)N[C@@H]1C(=O)N2C(C(=O)[O-])=C(C[n+]3ccccc3)CS[C@H]12)c1csc(N)n1)C(=O)O [Ceftazidime pentahydrate]
4. CC(C)(C)NCC(O)COc1cccc2c1CC(O)C(O)C2 (configuration not stated)
5. CC1(C)[C@H](C(=O)O)N2C(=O)C[C@H]2S1(=O)=O
6. CN(C)CCOC(c1ccccc1)c1ccccc1.Cn1c(=O)c2[nH]c(Cl)nc2n(C)c1=O [Dimenhydrinate]
7. C[C@]12C=CC(=O)C=C1CC[C@@H]1[C@@H]2C(=O)C[C@@]2(C)[C@H]1CC[C@]2(O)C(=O)CO

Result:
1: 0.188; 2: 0.203; 3: 0.167; 4: 0.201; 5: 0.2; 6: 0.174; 7: 0.185

Quick batch: growth for everything below.
1. CCOc1ccc2nc(S(N)(=O)=O)sc2c1 [Ethoxzolamide]
2. O=C(CCNNC(=O)c1ccncc1)NCc1ccccc1 [Nialamide]

Result:
1. 0.172
2. 0.217
